inhibition at 10 µg/mL reference
- Test system: LTC4
- ASSAY_REMARKS: Antagonism in isolated guinea-pig trachea, Test method (i) (Table 3, given as LTC4 antagonism)
- Type: cell-based
- CONDITION_PARAMETERS: Cavia porcellus, 5 min, test compound 10^-5 g/ml, given as LTC4 antagonisms
Use % as the unit, but write only the number.

Worked cases, inhibition at 10 µg/mL given:
| MOLECULE | inhibition at 10 µg/mL (%) |
| --- | --- |
| Cc1ccc(S(=O)(=O)OCC(O)CNc2cnn(C(C)C)c(=O)c2Cl)cc1 (stereo not shown) | 26 |
| CCn1ncc(NCCCOc2ccccc2C)c(Cl)c1=O | 83 |
| CCCc1cc(-c2nnn[nH]2)ccc1SCCCNc1cnn(C(C)C)c(=O)c1Cl | 33 |
| CCCc1cc(C(=O)OCC)ccc1OCCCNc1cnn(C(C)C)c(=O)c1 | 54 |
| CCn1ncc(NCC(O)COc2ccccc2Cl)c(Cl)c1=O (stereo not shown) | 44 |
| CCCc1cc(C(=O)OC)ccc1OCC(O)COc1cnn(C(C)C)c(=O)c1Cl (stereo not shown) | 78 |
| CCCc1cc(C(=O)OC)ccc1OCCCNc1cnn(C)c(=O)c1Cl | 63 |
| CCc1cc(C=CC(=O)O)ccc1OCCCNc1cnn(C(C)C)c(=O)c1Cl | 59 |

Field inhibition at 10 µg/mL (entry CCc1cc(OC)ccc1OCCCNc1cnn(CC)c(=O)c1Cl ) reads 93

Entry under test: CCn1ncc(NCCCOc2ccc(C(=O)OC)cc2Cl)c(Cl)c1=O . Its inhibition at 10 µg/mL was 53
